Cited source: paper PMC7615656

# TARGET: recombinant rat α6β3γ2 receptors (Rattus norvegicus, UniProt P18508+P30191)
# Sequence (P30191 20-453): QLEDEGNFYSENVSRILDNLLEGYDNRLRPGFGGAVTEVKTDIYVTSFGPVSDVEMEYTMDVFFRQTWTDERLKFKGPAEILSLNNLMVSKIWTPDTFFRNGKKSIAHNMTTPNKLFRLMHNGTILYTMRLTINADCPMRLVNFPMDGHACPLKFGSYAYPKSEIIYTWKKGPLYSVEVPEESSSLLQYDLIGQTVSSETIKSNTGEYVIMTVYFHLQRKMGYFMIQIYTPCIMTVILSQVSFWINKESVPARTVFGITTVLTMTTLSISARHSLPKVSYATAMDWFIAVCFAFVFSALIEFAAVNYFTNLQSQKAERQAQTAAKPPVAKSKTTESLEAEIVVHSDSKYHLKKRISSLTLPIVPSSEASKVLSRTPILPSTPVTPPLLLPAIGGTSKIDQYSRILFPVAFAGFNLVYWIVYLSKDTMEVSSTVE
# Sequence (P63079 26-473 partner): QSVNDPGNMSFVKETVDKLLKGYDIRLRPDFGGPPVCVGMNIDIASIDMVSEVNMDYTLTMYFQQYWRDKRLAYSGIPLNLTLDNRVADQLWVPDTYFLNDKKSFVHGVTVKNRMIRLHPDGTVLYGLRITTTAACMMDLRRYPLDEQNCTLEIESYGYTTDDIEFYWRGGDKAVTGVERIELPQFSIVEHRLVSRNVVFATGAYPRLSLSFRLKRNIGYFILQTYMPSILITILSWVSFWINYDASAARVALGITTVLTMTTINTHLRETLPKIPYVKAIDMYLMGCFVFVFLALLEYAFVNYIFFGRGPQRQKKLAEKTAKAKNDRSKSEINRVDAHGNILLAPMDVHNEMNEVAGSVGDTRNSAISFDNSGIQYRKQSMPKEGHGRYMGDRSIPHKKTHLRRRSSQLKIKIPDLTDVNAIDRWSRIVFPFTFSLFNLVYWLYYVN
# Sequence (P18508 39-466): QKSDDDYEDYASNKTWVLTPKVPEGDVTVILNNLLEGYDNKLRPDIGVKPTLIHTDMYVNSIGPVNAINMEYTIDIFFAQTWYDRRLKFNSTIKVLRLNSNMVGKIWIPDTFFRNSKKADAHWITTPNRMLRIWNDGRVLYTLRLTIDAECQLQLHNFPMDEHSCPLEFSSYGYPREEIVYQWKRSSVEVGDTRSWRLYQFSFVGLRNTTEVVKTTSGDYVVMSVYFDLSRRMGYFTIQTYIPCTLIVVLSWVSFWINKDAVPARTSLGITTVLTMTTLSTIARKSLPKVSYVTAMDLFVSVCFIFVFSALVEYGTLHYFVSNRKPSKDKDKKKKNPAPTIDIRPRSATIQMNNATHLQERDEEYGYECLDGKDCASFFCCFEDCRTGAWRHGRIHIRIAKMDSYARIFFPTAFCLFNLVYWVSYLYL
# ASSAY_PROTOCOL: Two-electrode voltage clamp of GABA-induced chloride currents in Xenopus oocytes
# Assay type: cell-based
# CONDITION_DESCRIPTION: 100 nM; α6β3γ2; ns = not significant
Readings of efficacy (% GABA EC3) for the listed molecules
Reply numerically in % GABA EC3, unit not repeated.

# MOLECULE, TARGET, PROPERTY_MEASURED, VALUE_OBSERVED
records = [
    ("CCOC(=O)c1ncn2c1CN(C)C(=O)c1cc(F)ccc1-2 [Ro15–1788]", "recombinant rat α6β3γ2 receptors (Rattus norvegicus, UniProt P18508+P30191)", "efficacy (% GABA EC3)", 128),
]

Please find the next molecule below.
Request: Please look up its efficacy (% GABA EC3): CCc1c(C(=O)OC)ncc2[nH]c3cc(OC)c(OC)cc3c12 [DMCM]
Response: 118
